Ki data for Transporter (Rattus norvegicus, UniProt Q63380) follow.
Please respond with the number in µM and leave the unit unwritten.

Some solved entries appear below for comparison.
{"columns": ["Compound", "Measured number"],
 "data": [
  ["CN(C)CCCC1(c2ccc(F)cc2)OCc2cc(-c3cc(F)cc(F)c3)ccc21 (centres undefined)", 2],
  ["CN(C)CCC[C@@]1(c2ccc(F)cc2)OCc2cc(/C=C/c3ccccc3)ccc21", 16.8],
  ["CN(C)CCCC1(c2ccc(F)cc2)OCc2c(-c3cccc(F)c3)cccc21 (centres undefined)", 7.67]
]}

Checklist item: Ki tested on Transporter (Rattus norvegicus, UniProt Q63380), entry CN(C)CCCC1(c2ccc(F)cc2)OCc2cc(Br)ccc21 (racemic) , value?
28.4

Measured values drawn from ChEMBL document CHEMBL1212898 for this set.
